What TGI was measured for each of the following?
Test system: RXF 393 renal
ASSAY: NCI tumour cell line growth inhibition, 48 h
Where a SMILES comes first, the peptide text is derived from it. [ ]: non-standard residue; d: D form. Phe(F5) = N[CH](Cc1c(F)c(F)c(F)c(F)c1F)C(=O)O

Challenge: Form: Entry = COC(=O)C(CC(C)C)NC(=O)C(Cc1cnc[nH]1)NC(=O)CNC(=O)C(NC(=O)C(C)NC(=O)C(Cc1c[nH]c2ccccc12)NC(=O)C(CCC(=O)O)NC(=O)C(N)Cc1c(F)c(F)c(F)c(F)c1F)C(C)C (stereo not given) (H-[Phe(F5)]EWAVGHL-OMe; configuration not given here) | System = RXF 393 renal | TGI = ____
Response given: > 100 µM

Challenge: Enter reported TGI observed with RXF 393 renal for Cc1ccc2c(c1)C1(C)OC(CC(N)C1O)O2 (stereo not given)
Response given: > 100 µM

Challenge: Query the reported TGI for RXF 393 renal; item: O=C1CSC2(CC(/C=C/c3ccccc3O)=NN2c2cccc(S(=O)(=O)O)c2)N1c1nc2ccccc2s1 (stereo not given)
Response given: > 100 µM

Challenge: Enter reported TGI observed with RXF 393 renal for COc1ccc(C(=O)/C=C/c2ccc(OCC(=N)N)cc2)cc1OC
Response given: > 10 µM

Challenge: What TGI appears in the records for this compound with RXF 393 renal? CC(C)=CCOc1cc(NC(=S)c2ccoc2C)ccc1Cl
Response given: > 100 µM

----------
Test system: OVCAR-5 ovarian
ASSAY: NCI tumour cell line growth inhibition, 48 h
RECORDED_METRIC: TGI

Challenge: Please give the measured TGI for this compound: O=C(O)c1c[nH]c2c(Sc3ccccc3)nccc2c1=O
Response given: > 100 µM

Challenge: Recorded TGI of O=C(NC(C(F)(F)F)(C(F)(F)F)P(=O)(c1ccccc1)c1ccccc1)C(C(F)(F)F)C(F)(F)F , please.
Response given: > 100 µM

Challenge: Any idea what its TGI is? The compound is Cc1c2cnccc2c(C)c2c1[nH]c1ccc(O)cc12
Response given: > 10 µM

Challenge: Value lookup for TGI; key = C=C(C)[C@@H]1CC[C@]2(C(=O)NCCCN)CC[C@]3(C)[C@H](CC[C@@H]4[C@@]5(C)CC[C@H](O)C(C)(C)[C@@H]5CC[C@]43C)[C@@H]12
Response given: 31.3 µM

Challenge: Form field: reported TGI of CC(C)(O)c1ccc(N2CCN(c3nnc(Cc4ccccc4)c4ccccc34)CC2)nc1
Response given: 38.9 µM

Challenge: May I ask what TGI has been recorded for CCCCc1ccc(Nc2nc(Cl)c3c(ncn3COCCOC(C)=O)n2)cc1 ?
Response given: 37.5 µM

Challenge: Would you mind telling me what TGI value was observed for CCOC(=O)CSc1ccnc(=O)[nH]1 ?
Response given: > 100 µM

Challenge: Requested read-out: TGI. Entry: Cn1nc(Cc2ccc(Cl)cc2)n(N)c1=O
Response given: > 100 µM

Challenge: Record request: TGI value, item Nc1cc(=O)[nH]c(SC2=NC(N)CC(O)C2)n1 (stereo unspecified)
Response given: > 100 µM

Challenge: Name the recorded TGI for CC1CC2OC(=O)C3CC(O)CC(=C23)[C@@]12C[C@@H](c1ccoc1)OC2=O (stereo partly specified) .
Response given: > 100 µM

Challenge: Would you mind telling me what TGI value was observed for COc1ccc2c(c1)CCC1C2CCC2(C)C1CCC2(O)CNC(=O)CCCCC1CCSS1 (stereo unspecified) ?
Response given: > 100 µM

Challenge: Any idea what its TGI is? The compound is COc1cc(OCc2ccc3nc(-c4ccccc4)c(N)nc3c2)cc(OC)c1OC
Response given: 55.3 µM

Challenge: May I ask what TGI has been recorded for CCOC(=O)Cc1c[nH]c(=S)[nH]c1=O ?
Response given: > 100 µM

Challenge: Given the compound COc1cc(Cn2cc3c(c2)-c2oncc2CC3)cc(OC)c1OC , what is its reported TGI?
Response given: > 100 µM

Challenge: Recorded TGI of CCn1c(-c2nonc2N)nc2cncc(C(=O)N3CCNCC3)c21 , please.
Response given: > 25 µM

Challenge: Name the reported TGI value associated with the compound CCOC(=O)c1cc(Sc2ccc(N)c(C(=O)OCC)c2)ccc1N
Response given: > 100 µM

----------
System: K-562 leukemia
ASSAY: NCI tumour cell line growth inhibition, 48 h
RECORDED_METRIC: TGI

Challenge: Look at this molecule and give its reported TGI. CCCN(Cc1ccc(F)cc1)c1ccc(CO)c(Cl)c1
Response given: 15.2 µM

Challenge: Report TGI for CCn1c(-c2nonc2N)nc2cncc(C(=O)N3CCNCC3)c21 please.
Response given: > 25 µM

Challenge: Quick one: TGI of CN(C)CCNC(=O)c1cccn2c(=O)c3cc4ccccc4cc3nc12 ?
Response given: 40.8 µM

Challenge: What value of measured TGI is listed for OCC1OC(n2ccc3c2ncn2ncnc32)C(O)C1O (configuration not stated) ?
Response given: > 100 µM

Challenge: Consider the molecule shown here: O=C1c2ccccc2C(=O)N1CC1(C(=O)O)NCCS1(=O)=O (configuration not stated) What is its recorded TGI?
Response given: > 100 µM

Challenge: Request the reported TGI associated with COC(=O)[C@H](Cc1ccccc1)NC(=O)NCCN(CCNC(=O)N[C@@H](Cc1ccccc1)C(=O)OC)C(=O)N[C@@H](Cc1ccccc1)C(=O)OC
Response given: 61 µM

Challenge: Which TGI value belongs to Cc1occc1C(=S)Nc1ccc(Cl)c(C(=O)OCC(F)(F)F)c1 ?
Response given: 59.1 µM

Challenge: Please report the recorded TGI for CCOC(=O)/C(N=Nc1ccc(-n2c(C)nc3ccccc3c2=O)cc1)=C(/C)O .
Response given: > 100 µM

Challenge: I'd like to know its TGI. The molecule in question is CC1=CC(=O)c2c(O)cccc2C1=O
Response given: 2.52 µM

Challenge: Need TGI, item CC1(C)CCC2(C(=O)OC3OC(CO)C(O)C(O)C3O)CC[C@]3(C)C(=CCC4C5(C)CC[C@H](OC6OC(C(=O)O)C(O)C(O)C6O)C(C)(C)C5CCC43C)C2C1 (some centres not stated)
Response given: > 50 µM

Challenge: Reported TGI for COc1ccc(/C=C(\Cl)c2ccc(OC)c(OC)c2)cc1OC : what is it?
Response given: > 100 µM

Challenge: Entry NC(=O)c1cc2ccccc2oc1=Nc1ccccc1 has what TGI?
Response given: > 100 µM

Challenge: Would you mind telling me what TGI value was observed for CCCCCC(=O)Nc1n[nH]nc1C(N)=O ?
Response given: > 100 µM

Challenge: Request the reported TGI associated with c1ccc2nc(Cn3c[n+](Cc4ccc5ccccc5n4)c4ccccc43)ccc2c1
Response given: 11.8 µM

Challenge: Please look up its TGI: C=CCONC(=O)c1ccc(Cl)cc1
Response given: > 100 µM

Challenge: Would you mind telling me what TGI value was observed for COc1ccc(Br)c2c1CC(C(=O)O)CC2 (configuration not stated) ?
Response given: > 100 µM

Challenge: Reported TGI, molecule COC(=O)N1C[C@@]2(C=CC3(CC2)OCCO3)c2ccccc21 : ____
Response given: > 100 µM

Challenge: I would be grateful if you could share the reported TGI for C=C1C(=O)O[C@@H]2C1CC(=O)C(C)CC/C=C(\C)CCC[C@H](C)[C@H]2OC(C)=O (some centres not stated) .
Response given: 15.3 µM

Challenge: // lookup TGI for Cc1nn2c(=O)c([N+](=O)[O-])c(/C=C/c3ccccc3)nc2s1
Response given: > 26.7 µM

Challenge: Please report the recorded TGI for O=C(NO)c1ccc([N+](=O)[O-])cc1 .
Response given: > 100 µM

Challenge: Dear colleague, I am looking for the recorded TGI of the following molecule: O=C(NCCCCCCNC(=O)c1cccc2ccccc12)c1cccc2ccccc12
Response given: > 100 µM

Challenge: Would you mind telling me what TGI value was observed for CCOC(=O)c1ccc(C(=O)OCC)n1-c1cc2cc(c1)CSCc1cc(cc(-n3c(C(=O)OCC)ccc3C(=O)OCC)c1)CSC2 ?
Response given: > 10 µM

----------
System: HOP-62 NSCLC
ASSAY: NCI tumour cell line growth inhibition, 48 h; in the data active = GI50 below about 0.43 µM; inactive = the rest
Write down one outcome, taken from active, inactive

Challenge: Tell me the assay call for CCC[CH2][Sn]([CH2]CCC)([O]C(C)=O)[O]C(C)=O please.
Response given: inactive

Challenge: How did this test come out for CC12CCC=CC1CCC1C2CCC2(C)C(c3ccc(=O)oc3)CCC12O (stereo not given) ?
Response given: active

Challenge: Write down the call the test reported for this compound. Item: COc1cc2c(cc1OC)-c1ccc3cc4c(cc3c1N(CCN1CCCC1)C2)OCO4
Response given: active

Challenge: Write down the call the test reported for this compound. Item: COc1cc2nc(Cl)nc(Nc3cccc(C(=O)/C=C/c4ccccc4)c3)c2cc1OC
Response given: inactive

Challenge: Record request — test call for COc1ccc(C(=O)/C=C/c2ccc(Cl)cc2)cc1S(=O)(=O)Nc1c(N)nc(SC)[nH]c1=O
Response given: inactive
